Values compiled from paper PMC9911399.

Kindly supply the reported binding signal values for the records listed here.
study target: T1, RBFOX1 RRM (Homo sapiens, UniProt Q9NWB1 109-208)
T1 sequence: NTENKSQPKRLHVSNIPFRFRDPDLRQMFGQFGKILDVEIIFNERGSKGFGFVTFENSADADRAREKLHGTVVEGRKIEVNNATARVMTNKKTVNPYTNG
assay remarks: EMSA; HiTS-Eq, 1 nM pool, 10 min; buffer printed only for the single-RNA assays: 10 mM Tris pH 7.5, 150 mM NaCl, 3.4 mM EDTA, 0.001% NP-40, 30 C
experimental setup: tags: His6 N-terminal (pET28a); label: 5' 32P
Whole data set: some 16,000 sequences, median “ka relative to ugcaugu” near 0.0091, cut for the highest 2% near 0.032. The sample as a whole holds a higher share of the highest values than the screen did.

GCACGAG (DNA:RNA) RNA: GGGAGACCGGAAUUCAGAUUGUCCGCACGAGUUAAAUCCCGUCGUAGCCACCA DNA 1: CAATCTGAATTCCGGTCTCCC DNA 2: TGGTGGCTACGACGGGATT	0.0362 KA relative to UGCAUGU
GCACGAA (DNA:RNA) RNA: GGGAGACCGGAAUUCAGAUUGUCCGCACGAAUUAAAUCCCGUCGUAGCCACCA DNA 1: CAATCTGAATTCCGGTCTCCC DNA 2: TGGTGGCTACGACGGGATT	0.0197 KA relative to UGCAUGU
GCACACG (DNA:RNA) RNA: GGGAGACCGGAAUUCAGAUUGUCCGCACACGUUAAAUCCCGUCGUAGCCACCA DNA 1: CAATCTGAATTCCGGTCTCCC DNA 2: TGGTGGCTACGACGGGATT	0.00843 KA relative to UGCAUGU

// next item, binding signal requested
Looking up CGCACCG (DNA:RNA) RNA: GGGAGACCGGAAUUCAGAUUGUCCCGCACCGUUAAAUCCCGUCGUAGCCACCA DNA 1: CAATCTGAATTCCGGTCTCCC DNA 2: TGGTGGCTACGACGGGATT , I see its binding signal listed as 0.00744 KA relative to UGCAUGU
